system: CRF1R
testMethodNotes: cell-based or functional assay
Ends that are not written are not given here.
observationType: CRF1R EC50

Observe how each entry below is paired with its result.
>>> print(df.to_string())
                                     binder   result
0  NDDPPISIDLPLILLRNMIEMARIENEREQAGLNAKYLAEV-NH2 [SEQ ID NO 269]  1000 nM
1  ZGPPISIDLPWWLLRKMIEIEKQEKEKQQAANNRLLLDTI (C-terminal amide) [SEQ ID NO 216]  49.8 nM
2  ZGPPISIDLPFQLLRKVIEIEKQEKEKQQAANNARLLARI (not fully specified; C-terminal amide) [SEQ ID NO 279]  1000 nM

Which CRF1R EC50 reading was recorded for the binder DNPSLSIDLPLLLLRTLLELARTQSQRERAEQNARIFARV-NH2 [SEQ ID NO 340] ?
740 nM

So what's the measured CRF1R EC50 for this one? ZGPPISIDVPFQLLRKVIEIEKQEKEKQQAANNARLLDTI (C-terminal amide) [SEQ ID NO 382]
1000 nM

Field request: CRF1R EC50 | item: ZGPPISIDLPFFLLRKMIEIEKQEKEKQQAANNALLLDTI (C-terminal amide) [SEQ ID NO 318]
134 nM

These data points were gathered from patent US20030148958A1.
